Here, molecules appear alongside IC50 reported for Prostaglandin G/H synthase 1 (Ovis aries, UniProt P05979) in the literature.
Consider the cut-off 8 µM. If the recorded IC50 is strictly smaller, the label is True; if not, the label is False.

Qu. IC50 strictly < 8 µM for this molecule? "COc1ccc2c(c1)CCC(c1ccc(OC)c(OC)c1OC)=C2"
Ans. True

Qu. Moving on to the next molecule: "Brc1ccc(-c2nn(-c3ccccc3)cc2-c2nnc(-c3ccccc3)o2)cc1"
Ans. False

Qu. Moving on to the next molecule: "Cc1nn(-c2ccc(S(N)(=O)=O)cc2)c2c1c(=O)[nH]c1ccc([N+](=O)[O-])cc12"
Ans. True

Qu. Moving on to the next molecule: "O=C(Nc1ccc(F)cc1)c1c[nH]c(=O)c(Cl)c1"
Ans. True

Qu. Moving on to the next molecule: "OC[C@H]1C[C@](O)(c2ccccc2)[C@@H](c2ccccc2)O1"
Ans. False

Qu. Moving on to the next molecule: CC(C(N)=O)c1ccc(-c2ccccc2)c(F)c1 (centres undefined)
Ans. False

Qu. Moving on to the next molecule: "COc1ccccc1-c1cc(C(F)(F)F)nn1-c1ccc(S(N)(=O)=O)c(CO)c1"
Ans. False

Qu. Moving on to the next molecule: "O=C(O)Cn1c2c(c3cc(F)ccc31)CN(C(=O)c1cccc(Cl)c1)CC2"
Ans. False

Qu. Moving on to the next molecule: "NS(=O)(=O)c1ccc(CCn2cc(-c3ccc(Cl)cc3)nn2)cc1"
Ans. False

Qu. Moving on to the next molecule: "CS(=O)(=O)c1ccc(-c2ccccc2-c2cncnc2)cc1"
Ans. False

Qu. Moving on to the next molecule: "CS(=O)(=O)c1ccc(-c2c(-c3ccccc3)cc(-c3ccc(C(F)(F)F)cc3)oc2=O)cc1"
Ans. False

Qu. Moving on to the next molecule: "CCCCCCCCSc1ccccc1OC(C)=O"
Ans. False

Qu. Moving on to the next molecule: "NS(=O)(=O)c1ccc(-n2nnnc2-c2ccc(Cl)cc2)cc1"
Ans. False

###

Here, compounds appear alongside pIC50 reported for Prostaglandin G/H synthase 1 (Ovis aries, UniProt P05979) in the literature.
Test Target: Prostaglandin G/H synthase 1 (Ovis aries, UniProt P05979)
Sequence (P05979 whole entry): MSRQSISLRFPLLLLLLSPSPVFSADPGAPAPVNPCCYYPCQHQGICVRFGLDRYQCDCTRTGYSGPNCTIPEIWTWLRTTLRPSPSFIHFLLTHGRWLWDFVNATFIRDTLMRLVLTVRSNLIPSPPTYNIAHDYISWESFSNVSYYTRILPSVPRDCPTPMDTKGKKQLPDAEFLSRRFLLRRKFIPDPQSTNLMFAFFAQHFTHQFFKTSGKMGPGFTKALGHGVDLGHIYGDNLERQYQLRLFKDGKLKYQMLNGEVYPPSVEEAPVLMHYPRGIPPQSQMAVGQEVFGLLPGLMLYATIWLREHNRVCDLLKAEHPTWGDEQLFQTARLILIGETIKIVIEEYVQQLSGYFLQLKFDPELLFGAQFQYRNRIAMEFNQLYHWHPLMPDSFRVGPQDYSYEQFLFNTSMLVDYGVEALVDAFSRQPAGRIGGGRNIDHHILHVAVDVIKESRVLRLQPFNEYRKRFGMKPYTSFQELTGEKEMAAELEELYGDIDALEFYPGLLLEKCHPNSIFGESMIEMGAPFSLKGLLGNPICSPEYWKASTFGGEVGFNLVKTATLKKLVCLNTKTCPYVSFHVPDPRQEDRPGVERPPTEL
pIC50: −log10 of the molar value.

Qu. # lookup: pIC50 of "CCCCCCCN(C)c1ccccc1OC(C)=O"
Ans. < 4.40

Qu. Moving on to the next compound: "CCCCC#CCSc1ccccc1OC(=O)CC"
Ans. < 4.40

Qu. Moving on to the next compound: COc1ccc2cc(C(C)c3n[nH]c(=S)n3N)ccc2c1 (centres undefined)
Ans. < 4.60

Qu. Moving on to the next compound: "FC(F)(F)c1[nH]nc(-c2ccc(Cl)cc2)c1Cc1ccccc1"
Ans. < 4.30
